Molecular target: recombinant Axl tyrosine kinase (Homo sapiens)
Construct: encompassing amino acids 473 to 894 of Axl; GST (N); made in house; host or cells: SF126 insect cells
Sequence (P30530 473-894): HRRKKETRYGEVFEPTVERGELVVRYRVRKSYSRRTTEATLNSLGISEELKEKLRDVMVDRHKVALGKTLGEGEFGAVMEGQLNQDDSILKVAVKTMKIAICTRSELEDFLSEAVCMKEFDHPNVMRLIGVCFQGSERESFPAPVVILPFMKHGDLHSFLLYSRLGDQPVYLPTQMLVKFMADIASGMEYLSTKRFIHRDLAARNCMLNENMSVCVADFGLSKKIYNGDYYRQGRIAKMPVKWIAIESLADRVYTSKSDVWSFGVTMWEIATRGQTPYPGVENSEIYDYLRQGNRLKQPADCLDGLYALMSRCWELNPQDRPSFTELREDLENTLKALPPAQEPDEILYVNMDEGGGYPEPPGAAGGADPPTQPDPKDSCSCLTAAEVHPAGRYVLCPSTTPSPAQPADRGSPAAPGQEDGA
Assay: In vitro Axl kinase assay (AlphaScreen), Test (a)
Type: biochemical
Conditions: test compound at 1 μM; first value quoted
quantityMeasured: % Axl tyrosine kinase inhibition at 1 μM concentration (%)

Consider the following illustrative entries.
N#Cc1cccc(-c2cnc(N)c(-c3nc4cccnc4o3)c2)c1 = 89.8
Cc1nn(C2CCNCC2)c(C)c1-c1cnc(N)c(-c2nc3ccccc3o2)c1 = 88.7
CN1C2CCC1CC(n1cc(-c3cnc(N)c(-c4nc5ccccc5o4)c3)cn1)C2 (stereo not drawn) = 99.9
Nc1ncc(-c2cccc(CN3CCCC3)c2)cc1-c1nc2ccccc2o1 = 99.0
Cc1nn(C2CCN(C)CC2)cc1-c1cnc(N)c(-c2nc3ccccc3o2)n1 = 100.0
CC(C)N1CCC(CN(C)C(=O)c2ccc(-c3cnc(N)c(-c4nc5cccnc5o4)c3)cc2)C1 (stereo not drawn) [Example 45A.42] = 99.3
COCCN1CCC(NC(=O)c2ccc(-c3cnc(N)c(-c4nc5cccnc5o4)c3)cc2)CC1 [Example 45A.10] = 97.5
Nc1ncc(-c2ccc(C(=O)NCCCN3CCOCC3)cc2)cc1-c1nc2cccnc2o1 [Example 45A.57] = 96.9
Nc1ncc(-c2ccc(C(=O)N3CCOCC3)cc2)cc1-c1nc2ncccc2o1 [Example 10A.14] = 92.7
Nc1ncc(-c2ccc(C(=O)NC[C@@H]3CCCN3)cc2)cc1-c1nc2cccnc2o1 [Example 45A.90] = 98.9

[P] COCc1ccc(-c2cnc(N)c(-c3nc4ccccc4o3)c2)cc1
[Q] Nc1ncc(-c2cccc(N3CCCC3)c2)cc1-c1nc2ccccc2o1
INPUT: Select one. Lower % Axl tyrosine kinase inhibition at 1 μM concentration: P or Q Selection: enter the item's label.
OUTPUT: Q
